# measured.target: BRAF V600E (Homo sapiens, UniProt P15056, V600E)
# Construct: expressed in transfected cells
# Sequence (P15056 whole entry V600E): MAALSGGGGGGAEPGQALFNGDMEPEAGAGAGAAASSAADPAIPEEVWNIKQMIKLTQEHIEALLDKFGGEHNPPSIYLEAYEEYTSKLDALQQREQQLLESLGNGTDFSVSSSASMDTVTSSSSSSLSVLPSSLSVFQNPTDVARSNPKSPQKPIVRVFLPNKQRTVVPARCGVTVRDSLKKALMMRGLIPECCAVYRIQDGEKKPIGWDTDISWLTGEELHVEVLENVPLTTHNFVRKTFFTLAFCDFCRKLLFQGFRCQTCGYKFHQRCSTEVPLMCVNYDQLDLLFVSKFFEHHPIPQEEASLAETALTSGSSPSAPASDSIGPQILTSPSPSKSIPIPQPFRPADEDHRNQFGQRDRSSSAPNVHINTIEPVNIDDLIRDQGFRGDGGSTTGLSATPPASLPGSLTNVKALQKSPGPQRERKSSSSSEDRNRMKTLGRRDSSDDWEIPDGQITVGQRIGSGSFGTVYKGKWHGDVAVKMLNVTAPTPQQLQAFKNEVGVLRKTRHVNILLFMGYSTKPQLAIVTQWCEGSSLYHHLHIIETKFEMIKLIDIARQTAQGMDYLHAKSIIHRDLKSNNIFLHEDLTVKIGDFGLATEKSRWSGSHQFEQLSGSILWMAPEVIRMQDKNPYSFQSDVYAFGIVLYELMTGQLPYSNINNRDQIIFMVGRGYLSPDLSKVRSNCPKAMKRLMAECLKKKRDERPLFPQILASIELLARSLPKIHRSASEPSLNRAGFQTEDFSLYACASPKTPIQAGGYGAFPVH
# test: Cellular assay of target protein degradation, T-Rex 293 cells stably transfected with HA-BRAF_V600E (HA immunofluorescence, high content imaging)
# Type: cell-based
# test.parameters: maximum degradation observed, T-Rex 293 HA-BRAF V600E
endpoint: Dmax

>  <compound>
O=C1CC[C@H](N2Cc3cc(N4CC5(CN(CC6CCN(c7ccc(-c8cnc9[nH]cc(C(=O)c%10c(F)ccc(NS(=O)(=O)N%11CC[C@@H](F)C%11)c%10F)c9c8)cc7)CC6)C5)C4)ccc3C2=O)C(=O)N1

>  <endpoint>
Dmax

>  <value>
35 to 70%

$$$$
>  <compound>
O=C1CC[C@H](N2Cc3cc(C[C@H](O)CN4CCN(c5ccc(-c6cnc7[nH]cc(C(=O)c8c(F)ccc(NS(=O)(=O)N9CC[C@@H](F)C9)c8F)c7c6)cc5)CC4)ccc3C2=O)C(=O)N1

>  <endpoint>
Dmax

>  <value>
35 to 70%

$$$$
>  <compound>
O=C1CCC(N2Cc3cc(N4CCC(CN5CCN(C6(c7ccc(-c8cnc9[nH]cc(C(=O)c%10c(F)ccc(NS(=O)(=O)N%11CC[C@@H](F)C%11)c%10F)c9c8)cc7)CC6)CC5)CC4)ccc3C2=O)C(=O)N1 (stereo partly shown)

>  <endpoint>
Dmax

>  <value>
< 35%

$$$$

# input Name the recorded Dmax for COc1ccc(NS(=O)(=O)N2CC[C@@H](F)C2)c(F)c1C(=O)c1c[nH]c2ncc(-c3ccc(N4CCC(CN5CCC(c6ccc7c(c6)CN([C@H]6CCC(=O)NC6=O)C7=O)CC5)CC4)cc3)cc12 .
# output 35 to 70%
